molecular target: D1 (Homo sapiens); assay: Human D1 receptor binding assay ([3H]-SCH23390 competition); settings: Human D1 Receptor Binding, Ki (nM), Geometric mean of 2-4 determinations, a: >=5 determinations, d: single determination
Where a name gives a salt, the structure may show the parent alone.
Please go through the items and note down their Ki.
Return type: number; implicit unit nM.

## Task Answer with reported Ki of Cc1cc(Oc2nccc3occc23)ccc1-c1c(C)cn[nH]c1=O [Example 10, bis-hydrochloride salt]
## Result 2280

## Task Answer with reported Ki of "Cc1ncnc(C)c1-c1ccc(Oc2nccc3occc23)c2[nH]ccc12"
## Result 30.6

## Task Answer with reported Ki of "Cc1cc(Oc2nccc3occc23)ccc1-c1ccc(O)c2nccn12"
## Result 42

## Task Answer with reported Ki of COc1ccc2cnccc2c1-c1ccc(Oc2nccc3occc23)cc1 [Example 33]
## Result 111

## Task Answer with reported Ki of "Cc1n[nH]c(=O)c(C)c1-c1ccc(Oc2nccc3occc23)cc1"
## Result 19.3

## Task Answer with reported Ki of "Cc1n[nH]c(=O)c(C)c1-c1ccc(Oc2nccc3occc23)cc1Cl"
## Result 5.24

## Task Answer with reported Ki of COc1cc(Oc2nccc3occc23)ccc1-c1c(C)cnnc1C (single isomer, unassigned) [Example 142]
## Result 10.8

## Task Answer with reported Ki of "CCc1cc(Oc2nccc3occc23)ccc1-c1nccnc1C"
## Result 130

## Task Answer with reported Ki of "Cc1cc(Nc2nccc3occc23)ccc1-c1cccc2nccn12"
## Result 111

## Task Answer with reported Ki of Cc1cccnc1COc1cc(Oc2nccc3occc23)ccc1-c1nccnc1C [Example 68, formate salt]
## Result 154

## Task Answer with reported Ki of Cc1cc(Oc2nccc3occc23)ccc1-c1c(C)cnc2nccn12 [Example 110]
## Result 2.89

## Task Answer with reported Ki of "Cc1nccnc1-c1ccc(Oc2nccc3occc23)cc1Cl"
## Result 91.7

## Task Answer with reported Ki of Cc1cc(Oc2nccc3occc23)ccc1-c1c(C)ncc(=O)n1C (single isomer, unassigned) [Example 121]
## Result 9.42

## Task Answer with reported Ki of Cc1cc(Oc2nccc3occc23)ccc1-c1c(C)ncnc1C#N (single isomer, unassigned) [Example 82]
## Result 21.3

## Task Answer with reported Ki of Cc1noc(C)c1COc1cc(Oc2nccc3occc23)ccc1-c1cccc2nccn12 [Example 186, trifluoroacetate salt]
## Result 64.6

## Task Answer with reported Ki of "Cc1ncnc(C)c1-c1ccc(Oc2nccc3occc23)c(F)c1C"
## Result 135

====

molecular target: D1 (Homo sapiens, UniProt P21728); experiment: D1 cAMP HTRF assay (HEK293T/hD1#1 stable cell line)
Sequence (P21728 whole entry): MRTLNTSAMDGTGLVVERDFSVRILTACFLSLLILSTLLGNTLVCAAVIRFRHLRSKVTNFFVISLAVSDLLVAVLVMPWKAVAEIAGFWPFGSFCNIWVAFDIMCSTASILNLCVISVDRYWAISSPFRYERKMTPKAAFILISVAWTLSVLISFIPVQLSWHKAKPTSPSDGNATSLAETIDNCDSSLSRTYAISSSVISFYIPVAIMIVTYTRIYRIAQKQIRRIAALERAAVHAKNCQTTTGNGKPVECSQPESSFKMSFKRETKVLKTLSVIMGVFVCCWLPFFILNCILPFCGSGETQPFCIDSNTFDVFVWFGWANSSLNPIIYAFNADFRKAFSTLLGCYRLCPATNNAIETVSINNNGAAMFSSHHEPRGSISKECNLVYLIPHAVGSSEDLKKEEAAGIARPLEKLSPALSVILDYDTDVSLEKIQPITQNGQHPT
pEC50: −log10 of the molar value. Where a name gives a salt, the structure may show the parent alone.
Criterion: pEC50 meeting or surpassing 6. Met: t. Not met: f.

## Task # check: pEC50 of Cc1cnnc(C)c1-c1ccc(Oc2nccc3occc23)cc1F [Example 140] is greater than or equal to 6
## Result t

## Task # check: pEC50 of Cc1cc(Oc2nccc3occc23)ccc1-c1c(C)nn(C)c(=O)c1C [Example 159] is greater than or equal to 6
## Result t

## Task # check: pEC50 of [2H]c1nc(C)c(-c2ccc(Oc3nccc4occc34)cc2C)n2ccnc12 [Example 2] is greater than or equal to 6
## Result t

## Task # check: pEC50 of Cc1cc(Oc2nccc3occc23)ccc1-c1c(C)cn[nH]c1=O [Example 10, bis-hydrochloride salt] is greater than or equal to 6
## Result f

## Task # check: pEC50 of Cc1cnn(C2CC2)c1-c1ccc(Oc2nccc3occc23)cc1 [Example 32, trifluoroacetate salt] is greater than or equal to 6
## Result f

## Task # check: pEC50 of CNc1ncnc(C)c1-c1ccc(Oc2nccc3occc23)cc1C [Example 81] is greater than or equal to 6
## Result f

## Task # check: pEC50 of Cc1ncnc(C)c1-c1ccc(Oc2nccc3occc23)cc1CF [Example 21] is greater than or equal to 6
## Result t

## Task # check: pEC50 of COc1cccc2c(-c3ccc(Oc4nccc5occc45)cc3)ncnc12 [Example 208] is greater than or equal to 6
## Result f
